Entry source: PubChem BioAssay AID328

Measured T/C values are reported for all entries that follow.
- System: BDF1 mice, P388 leukemia ip, median survival T/C
- assay_method_text: NCI In Vivo Anticancer Drug Screen. Data for tumor model P388 Leukemia (intraperitoneal) in B6D2F1 (BDF1) mice
- test_parameters: endpoint: median survival time; dose: 200.0 mg/kg/injection; schedule: Q01DX009 (ip); vehicle: other; higher = longer survival
Inconclusive results and toxic doses are left out. Residues, ends and D or L forms follow the SMILES beside them. *: point of attachment. Trt = c1ccc(C(c2ccccc2)(c2ccccc2)*)cc1; Bn = c1ccc(C*)cc1
experimental_readout: T/C

{"compound": "CCOC(=O)C(=CN(C)c1ccc([N+](=O)[O-])cc1)C(=O)OCC", "tested_system": "BDF1 mice, P388 leukemia ip, median survival T/C", "result": "109 % of control"}
{"compound": "CSC(c1ccccc1)=[N+]1CCOCC1", "tested_system": "BDF1 mice, P388 leukemia ip, median survival T/C", "result": "113 % of control"}
{"compound": "CCCCCCCCCCCC(=O)CCCC", "tested_system": "BDF1 mice, P388 leukemia ip, median survival T/C", "result": "90 % of control"}
{"compound": "N#Cc1cnn2c(=O)[nH]cnc12", "tested_system": "BDF1 mice, P388 leukemia ip, median survival T/C", "result": "100 % of control"}
{"compound": "O=C(/C=C/c1cccc(Br)c1)c1ccc(Cl)cc1", "tested_system": "BDF1 mice, P388 leukemia ip, median survival T/C", "result": "104 % of control"}
{"compound": "CCOC(=O)C1CC(=O)c2ccccc2C1 (configuration not stated)", "tested_system": "BDF1 mice, P388 leukemia ip, median survival T/C", "result": "110 % of control"}
{"compound": "Cc1cc(C)c(C(=O)CC(=O)c2cccnc2)c(C)c1", "tested_system": "BDF1 mice, P388 leukemia ip, median survival T/C", "result": "120 % of control"}
{"compound": "Cc1ccc(S(=O)(=O)F)c(Cl)c1", "tested_system": "BDF1 mice, P388 leukemia ip, median survival T/C", "result": "91 % of control"}
{"compound": "COC(=O)C(CSC(c1ccccc1)(c1ccccc1)c1ccccc1)NC(=O)C(CSCc1ccccc1)NC(C)=O (configuration not stated) (Ac-Cys(Bn)-Cys(Trt)-OMe; configuration not given here)", "tested_system": "BDF1 mice, P388 leukemia ip, median survival T/C", "result": "93 % of control"}
{"compound": "OP(=S)(c1ccccc1)c1ccccc1", "tested_system": "BDF1 mice, P388 leukemia ip, median survival T/C", "result": "108 % of control"}
{"compound": "Cc1cc(C)c(NC(=O)N(CCCl)N=O)cc1C", "tested_system": "BDF1 mice, P388 leukemia ip, median survival T/C", "result": "122 % of control"}
{"compound": "CCCCCCCCCCCCCCCCOCCCCCCCCCCCCCCCC", "tested_system": "BDF1 mice, P388 leukemia ip, median survival T/C", "result": "86 % of control"}

###

- Test system: BDF1 mice, P388 leukemia ip, median survival T/C
- assay_method_text: NCI In Vivo Anticancer Drug Screen. Data for tumor model P388 Leukemia (intraperitoneal) in B6D2F1 (BDF1) mice
- test_parameters: endpoint: median survival time; dose: 0.5 mg/kg/injection; schedule: Q04DX003 (ip); vehicle: saline with Tween-80
Inconclusive results and toxic doses are left out. The calls were made as follows: active = survival T/C of 150% or more; inactive = T/C below 125% in these data.
Outcome codes: true (1) (active), false (0) (inactive)

{"compound": "O=C1NC(Cc2ccc(N(CCCl)CCCl)cc2)C(=O)O1 (centres undefined)", "tested_system": "BDF1 mice, P388 leukemia ip, median survival T/C", "class_assignment": "false (0)"}
{"compound": "O=C(O)CCc1c[nH]c2ccc(N(CCCl)CCCl)cc12", "tested_system": "BDF1 mice, P388 leukemia ip, median survival T/C", "class_assignment": "true (1)"}
{"compound": "COC(=O)[C@@]12OC[C@]34[C@H]([C@@H](O)[C@@H]1O)[C@@]1(C)CC(=O)C(O)=C(C)[C@@H]1C[C@H]3OC(=O)[C@H](OC(=O)/C=C(\\C)C(C)C)[C@@H]24", "tested_system": "BDF1 mice, P388 leukemia ip, median survival T/C", "class_assignment": "false (0)"}
{"compound": "O=NN(CCCl)C(=O)Nc1cc(NC(=O)N(CCCl)N=O)cc(C(=O)O)c1", "tested_system": "BDF1 mice, P388 leukemia ip, median survival T/C", "class_assignment": "true (1)"}

###

- Tested on: BDF1 mice, P388 leukemia ip, median survival T/C
- assay_method_text: NCI In Vivo Anticancer Drug Screen. Data for tumor model P388 Leukemia (intraperitoneal) in B6D2F1 (BDF1) mice
- test_parameters: endpoint: median survival time; dose: 12.5 mg/kg/injection; schedule: Q01DX009 (ip); vehicle: saline
Toxic doses and inconclusive results are not listed. Rule for the calls: active = survival T/C of 150% or more; inactive = T/C below 125% in these data.
Labels: active, inactive

{"compound": "CN1CC(C(=O)N2CCCCC2)C=C2c3cccc4[nH]cc(c34)CC21 (stereo unspecified)", "class_assignment": "inactive"}
{"compound": "NC1C=CC(CCC(N)C(=O)O)C=C1 (stereo unspecified)", "class_assignment": "inactive"}
{"compound": "CCCCCCCCCCCCNC(=O)c1ccc[n+](C)c1", "class_assignment": "inactive"}
{"compound": "CC(/C=N/N=C(N)N)=N\\N=C(N)N.O=C([O-])C(=O)[O-].O=C([O-])C(=O)[O-].[Nb+5].[O-][O-].[O-][O-]", "class_assignment": "inactive"}
{"compound": "Nc1ccc(CCCCc2ccccc2)cc1", "class_assignment": "inactive"}
{"compound": "O=NNc1ccccn1", "class_assignment": "active"}

###

- Tested on: BDF1 mice, P388 leukemia ip, median survival T/C
- assay_method_text: NCI In Vivo Anticancer Drug Screen. Data for tumor model P388 Leukemia (intraperitoneal) in B6D2F1 (BDF1) mice
- test_parameters: endpoint: median survival time; dose: 25.0 mg/kg/injection; schedule: Q04DX003 (ip); vehicle: Klucel (hydroxypropylcellulose) (HPC)
Toxic doses and inconclusive results are not listed. Rule for the calls: active = survival T/C of 150% or more; inactive = T/C below 125% in these data.
Outcome codes: active, inactive

{"compound": "CC(=O)Nc1nccs1", "class_assignment": "inactive"}
{"compound": "CCC(=O)OCC1OC(n2cnc3c(=S)nc(N)[nH]c32)C(OC(=O)CC)C1OC(=O)CC (stereo not drawn)", "class_assignment": "active"}
{"compound": "N#Cc1ccccc1NN=Nc1ccccc1-c1nc(N)nc(N)n1", "class_assignment": "inactive"}
{"compound": "O=C(NN=C1CCCCC1)c1ccccc1", "class_assignment": "inactive"}
{"compound": "ClC1C2c3ccccc3C(C1Cl)[n+]1ccccc12 (stereo not drawn)", "class_assignment": "inactive"}
{"compound": "CCCCCCCCCCCCNC(=O)CC(O)(CC(=O)O)C(=O)O (stereo not drawn)", "class_assignment": "inactive"}
{"compound": "N#Cc1nc2c(nc1C#N)-c1ccccc1C2=O", "class_assignment": "inactive"}
{"compound": "Nc1cc(NC(=O)c2ccc(Cl)cc2)ccc1S(=O)(=O)O", "class_assignment": "inactive"}

###

Form field: T/C (one value per entry).
- Test system: BDF1 mice, P388 leukemia ip, median survival T/C
- assay_method_text: NCI In Vivo Anticancer Drug Screen. Data for tumor model P388 Leukemia (intraperitoneal) in B6D2F1 (BDF1) mice
- test_parameters: endpoint: median survival time; dose: 6.0 mg/kg/injection; schedule: Q01DX009 (ip); vehicle: Klucel (hydroxypropylcellulose) (HPC); higher = longer survival
Inconclusive results and toxic doses are left out.

{"chem_smiles": "ClCc1c2ccccc2c(CCl)c2ccccc12", "T/C": "105 % of control"}
{"chem_smiles": "Cc1c(C)c(N)c(C)c(C)c1N", "T/C": "87 % of control"}
{"chem_smiles": "CC[C@H](C)c1occ2c(O)c(C(=O)O)c(=O)cc-2c1C", "T/C": "100 % of control"}
{"chem_smiles": "CC(=O)[O][Hg][c]1cc[c]([Hg][O]C(C)=O)s1", "T/C": "100 % of control"}
{"chem_smiles": "N#Cc1nc2c(nc1C#N)-c1ccccc1C2=O", "T/C": "100 % of control"}

###

Entries and their T/C
- Tested on: BDF1 mice, P388 leukemia ip, median survival T/C
- assay_method_text: NCI In Vivo Anticancer Drug Screen. Data for tumor model P388 Leukemia (intraperitoneal) in B6D2F1 (BDF1) mice
- test_parameters: endpoint: median survival time; dose: 400.0 mg/kg/injection; schedule: Q01DX009 (ip); vehicle: Klucel (hydroxypropylcellulose) (HPC); higher = longer survival
Toxic doses and inconclusive results are not listed.

{"compound": "Cc1cc(N(c2c(Cl)c(Cl)c(NS(=O)(=O)c3ccccc3)c(Cl)c2Cl)S(=O)(=O)c2ccccc2)cc(C)c1N", "T/C": "96 % of control"}
{"compound": "CCC(=O)OC1CC2(C)C(=CC1=O)CCC1C2CCC2(C)C(OC(=O)CC)CCC12 (stereo not drawn)", "T/C": "109 % of control"}
{"compound": "O=C1CCCc2ccccc2N1", "T/C": "91 % of control"}
{"compound": "CCSc1nc(=S)cc(C)[nH]1", "T/C": "105 % of control"}
{"compound": "COC(=O)C1C(O)C(C)C(O)C(C)/C=C\\C=C(C)C(=O)Nc2c(C)c(OC(C)=O)c3c(c2O)C(=O)C(C)=C2OCOC(=C23)C(C)=CC(C)(O)C(O)C(C)C1O (stereo not drawn)", "T/C": "106 % of control"}
{"compound": "Cc1cc2nc(CO)[nH]c2cc1C", "T/C": "95 % of control"}
{"compound": "O=C1c2ccccc2C(=O)C1(Cl)C(Cl)c1ccc([N+](=O)[O-])cc1 (stereo not drawn)", "T/C": "100 % of control"}
{"compound": "COc1ccc2nc(NCN3C(=O)c4ccccc4C3=O)sc2c1", "T/C": "104 % of control"}
